Target: T1, human prolactin receptor (PRLR) (human, UniProt P16471 25-622)
T1 sequence: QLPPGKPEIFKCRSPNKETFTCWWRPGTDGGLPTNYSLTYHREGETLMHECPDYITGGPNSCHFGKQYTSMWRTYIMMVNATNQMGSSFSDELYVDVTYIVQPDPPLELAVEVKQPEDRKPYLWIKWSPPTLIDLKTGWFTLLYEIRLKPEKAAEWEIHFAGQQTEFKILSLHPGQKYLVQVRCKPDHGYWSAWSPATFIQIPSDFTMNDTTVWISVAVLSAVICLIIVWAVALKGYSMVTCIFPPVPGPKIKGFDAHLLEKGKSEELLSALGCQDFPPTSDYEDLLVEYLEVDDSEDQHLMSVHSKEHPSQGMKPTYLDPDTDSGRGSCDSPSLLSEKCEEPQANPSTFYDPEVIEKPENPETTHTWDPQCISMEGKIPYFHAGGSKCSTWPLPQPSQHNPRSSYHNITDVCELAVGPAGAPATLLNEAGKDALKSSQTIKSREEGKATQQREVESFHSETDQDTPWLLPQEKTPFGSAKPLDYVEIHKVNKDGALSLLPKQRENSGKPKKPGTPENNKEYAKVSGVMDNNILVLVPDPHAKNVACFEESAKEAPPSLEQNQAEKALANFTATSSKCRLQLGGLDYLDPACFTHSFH
Experiment: cell-based or functional assay
Entries and their % Kill, MCF7/ATCC cells values follow.
Dear colleague, please return just the value in %, with no unit written.

[
  {
    "BINDER": "H1H6953N-mc-VC-PAB-MeNHC3-May (antibody, human IgG1, V domains shown, MeNHC3-May conjugated through mc-VC-PAB linker; attachment residues not stated) VH: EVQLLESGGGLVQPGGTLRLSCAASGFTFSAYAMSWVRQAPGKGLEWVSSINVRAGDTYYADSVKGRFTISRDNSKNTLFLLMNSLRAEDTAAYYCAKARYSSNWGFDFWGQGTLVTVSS VL: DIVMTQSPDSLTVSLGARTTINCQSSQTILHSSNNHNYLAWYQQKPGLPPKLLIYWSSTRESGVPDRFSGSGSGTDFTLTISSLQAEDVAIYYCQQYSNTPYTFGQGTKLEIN",
    "REPORTED MEASUREMENT": 60
  },
  {
    "BINDER": "H1H6953N-mc-VC-PAB-MMAE (antibody, human IgG1, V domains shown, MMAE conjugated through cleavable mc-vc-PAB linker; attachment residues not stated) VH: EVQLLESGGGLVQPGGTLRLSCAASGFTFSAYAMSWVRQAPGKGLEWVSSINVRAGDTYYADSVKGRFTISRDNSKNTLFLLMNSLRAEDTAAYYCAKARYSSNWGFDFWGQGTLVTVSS VL: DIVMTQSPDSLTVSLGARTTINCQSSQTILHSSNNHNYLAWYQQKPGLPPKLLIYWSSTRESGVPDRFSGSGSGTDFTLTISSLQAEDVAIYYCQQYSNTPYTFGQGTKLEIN",
    "REPORTED MEASUREMENT": 40
  },
  {
    "BINDER": "H1H6975P-mc-VC-PAB-MMD (antibody, human IgG1, V domains shown, MMD conjugated through mc-VC-PAB linker; attachment residues not stated) VH: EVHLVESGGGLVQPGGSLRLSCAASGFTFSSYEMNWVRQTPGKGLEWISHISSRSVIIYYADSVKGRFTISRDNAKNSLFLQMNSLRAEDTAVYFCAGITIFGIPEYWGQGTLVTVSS VL: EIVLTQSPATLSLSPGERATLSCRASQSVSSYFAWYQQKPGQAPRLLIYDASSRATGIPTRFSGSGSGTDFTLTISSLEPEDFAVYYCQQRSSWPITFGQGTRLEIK",
    "REPORTED MEASUREMENT": 50
  },
  {
    "BINDER": "H1H6953N-DM1 (antibody, human IgG1, V domains shown, DM1 conjugated through SMCC linker; attachment residues not stated) VH: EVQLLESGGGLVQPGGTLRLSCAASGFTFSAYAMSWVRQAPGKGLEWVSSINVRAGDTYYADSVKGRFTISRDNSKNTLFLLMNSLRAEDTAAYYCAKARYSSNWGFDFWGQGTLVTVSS VL: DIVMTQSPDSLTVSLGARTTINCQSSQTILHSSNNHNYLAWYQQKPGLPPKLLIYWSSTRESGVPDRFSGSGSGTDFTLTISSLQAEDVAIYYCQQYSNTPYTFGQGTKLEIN",
    "REPORTED MEASUREMENT": 70
  },
  {
    "BINDER": "H1H6765P-DM1 (antibody, human IgG1, V domains shown, DM1 conjugated through SMCC linker; attachment residues not stated) VH: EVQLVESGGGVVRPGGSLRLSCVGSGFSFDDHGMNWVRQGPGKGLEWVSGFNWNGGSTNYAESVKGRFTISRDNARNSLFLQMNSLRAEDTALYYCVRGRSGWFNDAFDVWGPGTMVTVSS VL: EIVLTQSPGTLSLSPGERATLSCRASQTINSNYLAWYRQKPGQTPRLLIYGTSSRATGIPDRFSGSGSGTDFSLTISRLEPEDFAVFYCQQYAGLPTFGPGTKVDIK",
    "REPORTED MEASUREMENT": 70
  },
  {
    "BINDER": "H1H6782P-DM1 (antibody, human IgG1, V domains shown, DM1 conjugated through SMCC linker; attachment residues not stated) VH: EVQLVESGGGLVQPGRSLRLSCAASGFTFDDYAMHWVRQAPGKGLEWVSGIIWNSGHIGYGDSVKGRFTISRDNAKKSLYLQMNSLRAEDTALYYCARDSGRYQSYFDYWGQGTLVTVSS VL: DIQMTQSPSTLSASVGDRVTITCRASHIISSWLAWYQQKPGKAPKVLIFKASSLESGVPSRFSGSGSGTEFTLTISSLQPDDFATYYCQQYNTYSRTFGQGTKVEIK",
    "REPORTED MEASUREMENT": 70
  },
  {
    "BINDER": "H1H6765P-mc-VC-PAB-MMAE (antibody, human IgG1, V domains shown, MMAE conjugated through cleavable mc-vc-PAB linker; attachment residues not stated) VH: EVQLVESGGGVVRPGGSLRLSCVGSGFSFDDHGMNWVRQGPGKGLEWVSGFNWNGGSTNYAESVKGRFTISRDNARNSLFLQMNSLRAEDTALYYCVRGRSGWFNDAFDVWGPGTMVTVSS VL: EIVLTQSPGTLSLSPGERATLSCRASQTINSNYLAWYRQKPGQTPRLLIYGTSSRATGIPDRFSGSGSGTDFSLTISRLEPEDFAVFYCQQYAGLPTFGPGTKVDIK",
    "REPORTED MEASUREMENT": 40
  },
  {
    "BINDER": "H1H6958N2-mc-VC-PAB-MMAE (antibody, human IgG1, V domains shown, MMAE conjugated through cleavable mc-vc-PAB linker; attachment residues not stated) VH: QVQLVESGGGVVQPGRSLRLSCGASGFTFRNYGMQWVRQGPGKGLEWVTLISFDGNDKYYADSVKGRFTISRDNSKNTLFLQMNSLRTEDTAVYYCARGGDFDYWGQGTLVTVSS VL: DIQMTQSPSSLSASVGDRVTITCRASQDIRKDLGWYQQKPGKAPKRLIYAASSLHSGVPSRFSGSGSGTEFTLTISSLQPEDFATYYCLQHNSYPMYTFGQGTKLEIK",
    "REPORTED MEASUREMENT": 50
  },
  {
    "BINDER": "H1H6975N-DM1 (antibody, human IgG1, V domains shown, DM1 conjugated through SMCC linker; attachment residues not stated) VH: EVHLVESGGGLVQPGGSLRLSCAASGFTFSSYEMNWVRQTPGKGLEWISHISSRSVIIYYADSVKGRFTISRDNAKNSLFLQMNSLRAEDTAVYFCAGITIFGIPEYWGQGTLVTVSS VL: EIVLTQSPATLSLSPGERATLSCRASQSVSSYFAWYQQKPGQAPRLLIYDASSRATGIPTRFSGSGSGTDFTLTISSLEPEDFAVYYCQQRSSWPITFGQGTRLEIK",
    "REPORTED MEASUREMENT": 70
  },
  {
    "BINDER": "H1H6782P-mc-VC-PAB-MeNHC3-May (antibody, human IgG1, V domains shown, MeNHC3-May conjugated through mc-VC-PAB linker; attachment residues not stated) VH: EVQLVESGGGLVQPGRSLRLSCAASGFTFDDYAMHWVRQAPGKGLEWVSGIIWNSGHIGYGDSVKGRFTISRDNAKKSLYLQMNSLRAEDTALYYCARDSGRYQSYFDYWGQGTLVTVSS VL: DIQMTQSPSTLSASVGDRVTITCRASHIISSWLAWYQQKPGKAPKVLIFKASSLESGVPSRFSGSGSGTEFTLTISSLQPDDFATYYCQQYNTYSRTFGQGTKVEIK",
    "REPORTED MEASUREMENT": 50
  }
]

Look up % Kill, MCF7/ATCC cells: H1H6782P-mc-VC-PAB-MMD (antibody, human IgG1, V domains shown, MMD conjugated through mc-VC-PAB linker; attachment residues not stated) VH: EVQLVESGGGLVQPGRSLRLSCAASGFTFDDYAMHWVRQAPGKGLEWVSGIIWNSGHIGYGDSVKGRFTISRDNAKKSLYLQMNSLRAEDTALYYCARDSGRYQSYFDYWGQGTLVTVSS VL: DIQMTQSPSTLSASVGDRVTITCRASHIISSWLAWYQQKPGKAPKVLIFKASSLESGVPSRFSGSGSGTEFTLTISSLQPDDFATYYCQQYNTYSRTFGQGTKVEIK
50
